Test system: MDA-MB-231 breast
Assay: NCI tumour cell line growth inhibition, 48 h
measuredAttribute: TGI

INSERT INTO measurements (compound, targetsystem, measuredattribute, measuredvalue) VALUES
  ('Cc1c2oc(=O)c(C#N)cc2c2ccccn12', 'MDA-MB-231 breast', 'TGI', '> 100 µM'),
  ('C#CCn1c(I)cc2c(c1=O)COC(=O)[C@]2(O)CC', 'MDA-MB-231 breast', 'TGI', '> 100 µM'),
  ('CCCCC[C@H]1C/C=C2/C(=O)C=C[C@@H]2C/C=C\CCCC(=O)O1', 'MDA-MB-231 breast', 'TGI', '6.39 µM'),
  ('O=C(CC1(O)CCCCC1)OC1CCCC1', 'MDA-MB-231 breast', 'TGI', '> 100 µM'),
  ('CCOC(=O)c1cnc2n(c1=O)[C@H]1CCCC[C@@H]1N2', 'MDA-MB-231 breast', 'TGI', '> 100 µM'),
  ('Cc1cc(NS(=O)(=O)c2ccc(Nc3c4ccccc4nc4c(C(=O)NC(CO)(CO)CO)cccc34)cc2)no1', 'MDA-MB-231 breast', 'TGI', '> 100 µM'),
  ('CCOC(=O)C(Cc1cc(OC)c(CC(C(=O)OCC)C(=O)OCC)cc1OC)C(=O)OCC', 'MDA-MB-231 breast', 'TGI', '> 100 µM'),
  ('Cc1cccc(NC(=S)Nc2cccc(Cl)c2)n1', 'MDA-MB-231 breast', 'TGI', '> 100 µM'),
  ('CC(=O)N1CCOC12N=NC(C)(C)O2 (stereo unspecified)', 'MDA-MB-231 breast', 'TGI', '> 100 µM'),
  ('O=[N+]([O-])/C(Cl)=C(\NCCO)C(Cl)=C(Cl)Cl', 'MDA-MB-231 breast', 'TGI', '> 90.7 µM'),
  ('C[C@]12CCC3c4ccc(O)cc4CCC3C1CC[C@@H]2NC(=O)/C=C/c1ccc(O)c(O)c1 (stereo partly specified)', 'MDA-MB-231 breast', 'TGI', '33.6 µM');

---

Tested on: OVCAR-4 ovarian
Assay: NCI tumour cell line growth inhibition, 48 h
Catalogue of compounds with associated TGI
measuredAttribute: TGI

INSERT INTO results (compound, targetsystem, measuredvalue) VALUES
  ('C=C1C(=O)O[C@@H]2C[C@@H](C)[C@@H]3C=CC(=O)[C@@]3(C)[C@@H](OC(=O)CCCC(=O)O[C@H]3[C@@H]4C(=C)C(=O)O[C@@H]4C[C@@H](C)[C@@H]4C=CC(=O)[C@]43C)[C@H]12', 'OVCAR-4 ovarian', '0.262 µM'),
  ('COc1ccc(-c2cn3ccnc3c(-c3ccc(Cl)cc3)n2)cc1', 'OVCAR-4 ovarian', '> 100 µM'),
  ('COc1ccc2c(c1)[n+](=O)c(/C=C/C(=O)c1cc(OC)c(OC)c(OC)c1)c(C)n2[O-]', 'OVCAR-4 ovarian', '> 100 µM'),
  ('CCNC(=O)COc1ccc(Cl)c(C)c1', 'OVCAR-4 ovarian', '> 100 µM'),
  ('COc1c(OC2OC(C)C(O)C(O)C2O)c(OC)c2oc(-c3ccc(O)cc3)cc(=O)c2c1O (stereo not given)', 'OVCAR-4 ovarian', '> 100 µM');

---

System: HCT-15 colon
Assay: NCI tumour cell line growth inhibition, 48 h
Catalogue of compounds with associated GI50
measuredAttribute: GI50

INSERT INTO assay_data (itemsmiles, measuredvalue) VALUES
  ('CC(=O)c1nc(-c2ccc(C[C@@H](CNC(=O)CN(C)C)NC(=O)c3ccc(OC(C)C)c(Cl)c3)cc2)cn1C', '0.0899 µM'),
  ('CCCCC[C@H]1C/C=C2/C(=O)C=C[C@@H]2C/C=C\CCCC(=O)O1', '0.0937 µM'),
  ('COc1ccc(-c2cn3ccnc3c(-c3ccc(Cl)cc3)n2)cc1', '3.16 µM'),
  ('CSCc1ncc(-c2ccc(C(F)(F)F)cc2)c(NC2CCCCCC2)n1', '> 10 µM'),
  ('COc1ccc2c(CN3CCCC[C@H]3O)cc3cc4c(cc3c2c1)OCO4', '0.369 µM');

---

Test system: OVCAR-8 ovarian
Assay: NCI tumour cell line growth inhibition, 48 h
measuredAttribute: TGI

INSERT INTO results (compound, targetsystem, measuredattribute, measuredvalue) VALUES
  ('C[C@H](CCc1nc(C#N)c(N)o1)[C@H]1CC[C@H]2[C@@H]3CCC4C[C@@H](O)CC[C@]4(C)[C@H]3C[C@@H](O)[C@]12C (some centres not stated)', 'OVCAR-8 ovarian', 'TGI', '20.3 µM'),
  ('COC(=O)CCC(NC(=S)N/N=C(\C)c1cccs1)C(=O)OC (configuration not stated)', 'OVCAR-8 ovarian', 'TGI', '> 100 µM'),
  ('OC[C@H]1N[C@H](CO)[C@@H](O)[C@H]1O', 'OVCAR-8 ovarian', 'TGI', '> 100 µM'),
  ('COc1ccc(-c2nc(-c3cnccn3)n(C/C=C/c3ccccc3)n2)cc1', 'OVCAR-8 ovarian', 'TGI', '> 100 µM'),
  ('O=C(O)CCN1C(=S)CSC1=S', 'OVCAR-8 ovarian', 'TGI', '> 100 µM'),
  ('O=C(NNC(=O)c1ccc(Cl)cc1NC(=O)C12CC3CC(CC(C3)C1)C2)c1ccc(Cl)cc1', 'OVCAR-8 ovarian', 'TGI', '> 100 µM'),
  ('C#CCn1c(I)cc2c(c1=O)COC(=O)[C@]2(O)CC', 'OVCAR-8 ovarian', 'TGI', '> 100 µM'),
  ('BrCc1ccc2ccc3ccc(CBr)nc3c2n1', 'OVCAR-8 ovarian', 'TGI', '15.7 µM'),
  ('CC(C)(C)c1cc(C(C)(C)C)c(SC2OC(CO)C(O)C(O)C2O)c(O)c1O (configuration not stated)', 'OVCAR-8 ovarian', 'TGI', '27.7 µM'),
  ('CCOP(=O)(OCC)C(c1ccccc1)N(C(=O)NC(F)(F)F)c1ccc(C)cc1 (configuration not stated)', 'OVCAR-8 ovarian', 'TGI', '> 100 µM'),
  ('COC1CCC(OC)C(c2nc3sccn3c2/C=N/N=C(N)N)C1 (configuration not stated)', 'OVCAR-8 ovarian', 'TGI', '55.6 µM'),
  ('O=C1CC(c2cccc([N+](=O)[O-])c2)C2(C(=O)NC(=S)NC2=O)C(c2cccc([N+](=O)[O-])c2)C1 (configuration not stated)', 'OVCAR-8 ovarian', 'TGI', '43.6 µM'),
  ('CCOC(=O)c1cnc2n(c1=O)[C@H]1CCCC[C@@H]1N2', 'OVCAR-8 ovarian', 'TGI', '> 100 µM'),
  ('O=C(Nc1ccccc1)N1C(c2ccccc2)=N[C@@H](c2ccccc2)[C@@H]1c1ccccc1', 'OVCAR-8 ovarian', 'TGI', '45.6 µM'),
  ('CC(=O)N1CCOC12N=NC(C)(C)O2 (configuration not stated)', 'OVCAR-8 ovarian', 'TGI', '> 100 µM'),
  ('CC12CC(c3ccccc3O1)C(C(=O)Nc1nccs1)C(=O)N2 (configuration not stated)', 'OVCAR-8 ovarian', 'TGI', '> 100 µM'),
  ('N#Cc1nc(CN2C(=O)c3ccccc3C2=O)oc1N', 'OVCAR-8 ovarian', 'TGI', '> 100 µM'),
  ('CC(=O)/C(=N\N=C(N)N)c1ccccc1', 'OVCAR-8 ovarian', 'TGI', '> 100 µM'),
  ('NCCOCCOCC(=O)O', 'OVCAR-8 ovarian', 'TGI', '> 100 µM'),
  ('Cc1noc(-c2ccc(C(=O)O)[nH]2)c1Br', 'OVCAR-8 ovarian', 'TGI', '32.2 µM'),
  ('N/C(=N\N=C/c1c(O)cc(O)cc1O)NO', 'OVCAR-8 ovarian', 'TGI', '> 100 µM'),
  ('O=Cc1c2c(cc3c1CC1(C3)Cc3cc4c(c(C=O)c3C1)CCC4)CCC2', 'OVCAR-8 ovarian', 'TGI', '> 100 µM'),
  ('Cc1cc(C)nc(NC(=O)COc2ccc(Cl)cc2)c1', 'OVCAR-8 ovarian', 'TGI', '> 100 µM'),
  ('CSCc1ncc(-c2ccc(C(F)(F)F)cc2)c(NC2CCCCCC2)n1', 'OVCAR-8 ovarian', 'TGI', '> 10 µM'),
  ('CC1(C)Cc2ccccc2C(C)(Cl)C(=O)N1 (configuration not stated)', 'OVCAR-8 ovarian', 'TGI', '> 10 µM'),
  ('CSCSCC(CO)NC(=O)/C=C\c1c(C)[nH]c(=O)[nH]c1=O (configuration not stated)', 'OVCAR-8 ovarian', 'TGI', '89.9 µM'),
  ('COc1ccc2c(c1)[n+](=O)c(/C=C/C(=O)c1cc(OC)c(OC)c(OC)c1)c(C)n2[O-]', 'OVCAR-8 ovarian', 'TGI', '> 100 µM'),
  ('COc1ccc(N=c2nc3sc4cc(Cl)ccc4n3c(N)c2C#N)cc1', 'OVCAR-8 ovarian', 'TGI', '> 100 µM'),
  ('CC(C)(C)OC(=O)NCC(c1c[nH]c2ccccc12)c1c[nH]c2ccccc12', 'OVCAR-8 ovarian', 'TGI', '34.4 µM'),
  ('C/C(CC(O)(C(F)(F)F)C(F)(F)F)=N\O', 'OVCAR-8 ovarian', 'TGI', '> 10 µM'),
  ('CC(C)(C)N=C1C(=O)C2(C)CCC1C2(C)C (configuration not stated)', 'OVCAR-8 ovarian', 'TGI', '> 100 µM'),
  ('O=C(NCCCN1CCN(CCCNC(=O)Nc2cc(Cl)ccc2Cl)CC1)Nc1cc(Cl)ccc1Cl', 'OVCAR-8 ovarian', 'TGI', '> 100 µM'),
  ('Cn1cc(-c2csc(-c3ccc(Cl)cc3)n2)c2cccnc21', 'OVCAR-8 ovarian', 'TGI', '66.6 µM'),
  ('COC(=O)CCCc1nc2ccccc2nc1N=Nc1ccccc1', 'OVCAR-8 ovarian', 'TGI', '58.5 µM'),
  ('Cn1cnnc1Sc1c([N+](=O)[O-])nc(-c2ccc([N+](=O)[O-])cc2)n1C', 'OVCAR-8 ovarian', 'TGI', '33 µM'),
  ('O=Cn1c2ccccc2c2ccccc21', 'OVCAR-8 ovarian', 'TGI', '> 100 µM'),
  ('CCCCC[C@H]1C/C=C2/C(=O)C=C[C@@H]2C/C=C\CCCC(=O)O1', 'OVCAR-8 ovarian', 'TGI', '5.12 µM');

The values you see were collected from PubChem BioAssay (NCI).
